biological target: succinate dehydrogenase (Botrytis cinerea, UniProt A0A384J5E4+A0A384J8V8+A0A384JHJ5); construct: succinate-DCPIP reductase assay with KCN; test: Enzyme inhibition: succinate dehydrogenase activity in Botrytis cinerea mitochondria (DCPIP reduction); type: biochemical; details: concentration required to inhibit the rate of DCPIP reduction by 50%; Botrytis cinerea isolate Nick mitochondria; read-out: I50 (μM conc.)
Sequence (A0A384J5E4 1-300): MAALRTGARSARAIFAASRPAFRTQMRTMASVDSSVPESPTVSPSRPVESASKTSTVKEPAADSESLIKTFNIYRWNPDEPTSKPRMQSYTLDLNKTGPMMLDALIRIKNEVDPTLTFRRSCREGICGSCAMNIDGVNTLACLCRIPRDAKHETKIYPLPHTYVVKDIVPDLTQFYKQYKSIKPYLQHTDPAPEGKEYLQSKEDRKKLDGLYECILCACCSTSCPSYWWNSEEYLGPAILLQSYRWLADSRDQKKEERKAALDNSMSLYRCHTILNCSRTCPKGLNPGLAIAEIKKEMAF
Sequence (A0A384J8V8 1-189): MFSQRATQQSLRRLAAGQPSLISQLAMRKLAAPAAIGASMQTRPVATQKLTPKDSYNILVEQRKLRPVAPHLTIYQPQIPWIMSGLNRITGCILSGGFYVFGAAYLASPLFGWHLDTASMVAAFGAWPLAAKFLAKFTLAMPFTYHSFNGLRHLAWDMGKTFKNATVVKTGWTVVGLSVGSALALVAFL
Sequence (A0A384JHJ5 1-192): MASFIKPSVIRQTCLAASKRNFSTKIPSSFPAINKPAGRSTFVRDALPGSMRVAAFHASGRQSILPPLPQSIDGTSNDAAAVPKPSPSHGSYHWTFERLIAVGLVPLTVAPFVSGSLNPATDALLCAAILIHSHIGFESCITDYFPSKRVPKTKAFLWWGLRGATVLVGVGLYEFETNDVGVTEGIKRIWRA
Sequence (A0A384K456 1-647 partner): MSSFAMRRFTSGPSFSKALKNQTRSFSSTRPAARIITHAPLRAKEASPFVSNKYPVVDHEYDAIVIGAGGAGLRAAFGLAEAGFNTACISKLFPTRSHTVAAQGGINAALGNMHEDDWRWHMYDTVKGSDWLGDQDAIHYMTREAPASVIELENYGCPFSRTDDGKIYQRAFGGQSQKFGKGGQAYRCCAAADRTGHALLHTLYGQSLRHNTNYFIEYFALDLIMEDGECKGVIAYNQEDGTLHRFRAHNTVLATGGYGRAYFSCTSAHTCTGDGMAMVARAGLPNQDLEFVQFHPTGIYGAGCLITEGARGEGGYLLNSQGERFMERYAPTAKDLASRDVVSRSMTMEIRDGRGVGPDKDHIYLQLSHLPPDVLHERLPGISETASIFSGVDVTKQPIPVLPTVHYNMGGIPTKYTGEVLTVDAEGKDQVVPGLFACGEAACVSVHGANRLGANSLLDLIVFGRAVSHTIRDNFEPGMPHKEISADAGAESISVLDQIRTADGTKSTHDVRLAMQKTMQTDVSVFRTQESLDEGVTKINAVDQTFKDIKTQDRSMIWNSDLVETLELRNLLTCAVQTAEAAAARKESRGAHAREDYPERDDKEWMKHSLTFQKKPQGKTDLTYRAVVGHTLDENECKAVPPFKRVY
readout-type: IC50 (µM)
One number for each entry, in µM.

Please supply IC50 for each of the following items, keeping them in order.
1. CC1=C(C(=O)Nc2ccccc2)SCCO1 [Carboxin, carboxin, reference compound]
2. CC1=C(c2ccccc2NC(=O)c2cn(C)nc2C(F)(F)F)CCC1
3. Cn1cc(C(=O)Nc2ccccc2OCC2CCC2)c(C(F)F)n1
4. Cn1cc(C(=O)Nc2ccccc2C2CC(C)(C)CC(C)(C)C2)c(C(F)(F)F)n1

1: 0.72; 2: 0.02; 3: 0.2; 4: 0.032

Please supply IC50 for each of the following items, keeping them in order.
1. CC(C)C1CCCC=C1c1ccccc1NC(=O)c1cn(C)nc1C(F)(F)F (stereo not drawn)
2. Cn1cc(C(=O)Nc2ccccc2C2=CCOCC2)c(C(F)F)n1
3. Cc1ccccc1NC(=O)c1c(C)nn(C)c1C [Compound H, reference compound]
4. Cn1cc(C(=O)Nc2ccccc2CC2=CCCC2)c(C(F)F)n1
5. Cn1cc(C(=O)Nc2ccccc2CC2CCCCC2)c(C(F)F)n1

1. 0.19
2. 0.77
3. 475
4. 0.17
5. 0.11

* * *

biological target: succinate dehydrogenase (Botrytis cinerea, UniProt A0A384J5E4+A0A384J8V8+A0A384JHJ5); construct: succinate-DCPIP reductase assay with KCN; test: Enzyme inhibition: succinate dehydrogenase activity in Botrytis cinerea mitochondria (DCPIP reduction); format: biochemical; conditions: concentration required to inhibit the rate of DCPIP reduction by 50%; Botrytis cinerea isolate Nick mitochondria; read-out: I50 (μM conc.)
Response field label: string, one of Fulfilled (IC50 strictly below 0.09 µM) or Not fulfilled.

Past entries and their recorded results:
Cn1cc(C(=O)Nc2ccccc2C2(C)CCCC2)c(C(F)(F)F)n1 [Example 67]	Fulfilled
Cn1cc(C(=O)Nc2ccccc2OC2(C)CCCC2)c(C(F)(F)F)n1 [Example 36]	Fulfilled
Cc1c(C(=O)Nc2ccccc2C2CCCC2)c(C(F)(F)F)nn1C [Example 101]	Not fulfilled
Cn1cc(C(=O)Nc2ccccc2C2=CCSCC2)c(C(F)F)n1 [Example 144]	Fulfilled
Cn1cc(C(=O)Nc2ccccc2C2CCCC2)c(C(F)F)n1 [Example 7]	Fulfilled
CC1CC=C(c2ccccc2NC(=O)c2cn(C)nc2C(F)F)C1 (centres unmarked) [Example 149]	Fulfilled

Please determine if Cn1cc(C(=O)Nc2ccccc2[C@@H]2C[C@H]3CC[C@@H]2C3)c(C(F)F)n1 (relative stereo) [Example 26] is below 0.09 µM in terms of IC50.
Fulfilled

Please determine if Cn1cc(C(=O)Nc2ccccc2C2CCCCCC2)c(C(F)(F)Cl)n1 [Example 92] is below 0.09 µM in terms of IC50.
Fulfilled

Please determine if COc1ccc(C2CCCCC2)c(NC(=O)c2cn(C)nc2C(F)(F)F)c1 [Example 32] is below 0.09 µM in terms of IC50.
Not fulfilled

Please determine if Cn1cc(C(=O)Nc2ccccc2C2CC(C)(C)CC(C)(C)C2)c(C(F)F)n1 [Example 140] is below 0.09 µM in terms of IC50.
Fulfilled

Please determine if Cn1cc(C(=S)Nc2ccccc2[C@@H]2C[C@H]3CC[C@@H]2C3)c(C(F)F)n1 (relative stereo) [Example 102] is below 0.09 µM in terms of IC50.
Not fulfilled

Please determine if Cn1cc(C(=O)Nc2ccccc2OCC2CCCC2)c(C(F)(F)F)n1 [Example 47] is below 0.09 µM in terms of IC50.
Not fulfilled

Please determine if Cn1cc(C(=O)Nc2ccccc2OC2CCCCC2)c(C(F)(F)F)n1 [Example 23] is below 0.09 µM in terms of IC50.
Fulfilled

Please determine if O=C(Nc1ccccc1C1CCCCC1)c1c[nH]nc1C(F)F [Example 15] is below 0.09 µM in terms of IC50.
Fulfilled

Please determine if Cn1cc(C(=O)Nc2ccccc2O[C@@H]2C[C@H]3CC[C@@H]2C3)c(C(F)(F)F)n1 (relative stereo) [Example 81] is below 0.09 µM in terms of IC50.
Not fulfilled

Please determine if Cc1c(C(=O)Nc2ccccc2[C@@H]2C[C@H]3CC[C@@H]2C3)c(C(F)(F)F)nn1C (relative stereo) [Example 100] is below 0.09 µM in terms of IC50.
Not fulfilled

Please determine if Cn1cc(C(=S)Nc2ccccc2C2CCCCC2)c(C(F)F)n1 [Example 77] is below 0.09 µM in terms of IC50.
Not fulfilled

Please determine if Cn1cc(C(=O)Nc2ccccc2C2CCCCC2)c(Br)n1 [Example 5] is below 0.09 µM in terms of IC50.
Fulfilled

Please determine if Cn1cc(C(=O)Nc2ccccc2C=C2CCCCC2)c(C(F)F)n1 [Example 116] is below 0.09 µM in terms of IC50.
Fulfilled

Please determine if CCC1CC=C(c2ccccc2NC(=O)c2cn(C)nc2C(F)(F)F)CC1 (centres unmarked) [Example 126] is below 0.09 µM in terms of IC50.
Fulfilled

Please determine if Cc1c(C(=O)Nc2ccccc2C2CCCCCC2)c(Cl)nn1C [Example 105] is below 0.09 µM in terms of IC50.
Not fulfilled

* * *

Answer each item with its documented log10 IC50.
molecular target: succinate dehydrogenase (Botrytis cinerea, UniProt A0A384J5E4+A0A384J8V8+A0A384JHJ5); construct: succinate-DCPIP reductase assay with KCN; experiment: Enzyme inhibition: succinate dehydrogenase activity in Botrytis cinerea mitochondria (DCPIP reduction); type: biochemical; conditions: concentration required to inhibit the rate of DCPIP reduction by 50%; Botrytis cinerea isolate Nick mitochondria; read-out: I50 (μM conc.)
Could you please treat all values as log10 of IC50 in µM?

Cc1ccc(NC(=O)c2cn(C)nc2C(F)(F)F)c(C2CCCCC2)c1	-1.44
Cc1nn(C)cc1C(=O)Nc1ccccc1C1CCCC1	-0.60
C[C@H]1CCC[C@H](c2ccccc2NC(=O)c2cn(C)nc2C(F)(F)F)C1 (relative stereo)	-1.92
Cn1cc(C(=O)Nc2ccccc2C2=CCCC2(C)C)c(C(F)F)n1	-1.47
Cn1cc(C(=O)Nc2cc(Cl)ccc2C2CCCCC2)c(C(F)(F)F)n1	-1.13

Please supply log10 IC50 for each of the following items, keeping them in order.
1. Cc1nn(C)cc1C(=O)Nc1ccccc1C1CCCCCC1
2. Cn1cc(C(=O)Nc2ccccc2C2CCCCCCC2)c(C(F)(F)F)n1
3. Cn1cc(C(=O)Nc2ccccc2C=C2CCCC2)c(C(F)F)n1

-1.96
-2.96
-1.54

Please supply log10 IC50 for each of the following items, keeping them in order.
1. Cn1nc(C(F)(F)F)c(C(=O)Nc2ccccc2[C@@H]2C[C@H]3CC[C@@H]2C3)c1Cl (relative stereo)
2. Cn1cc(C(=O)Nc2ccccc2[C@@H]2C[C@H]3CC[C@@H]2C3)c(I)n1 (relative stereo)
3. Cn1cc(C(=O)Nc2ccccc2O[C@H]2CC[C@H](C)CC2)c(C(F)(F)F)n1
4. Cn1cc(C(=O)Nc2cccc(F)c2C2CCCCC2)c(C(F)F)n1

[-1.46, -2.07, -2.12, -2.20]

Please supply log10 IC50 for each of the following items, keeping them in order.
1. Cn1cc(C(=O)Nc2ccccc2C2CCCC2)c(C(F)(F)Cl)n1
2. Cc1nn(C)cc1C(=O)Nc1ccccc1C1CCCCC1
3. Cn1cc(C(=O)Nc2ccccc2C2=CCC(C(C)(C)C)CC2)c(C(F)(F)F)n1 (stereo not drawn)
4. Cn1cc(C(=O)Nc2ccccc2C2CCCCC2)c(C(F)(F)F)n1
5. Cn1cc(C(=O)Nc2ccccc2C2CCCCCCC2)c(I)n1
6. Cn1cc(C(=O)Nc2ccccc2C2CCCC2)c(I)n1

1. -0.10
2. -1.57
3. -2.34
4. -1.92
5. -2.43
6. -1.48

* * *

Answer each item with its documented IC50.
Biological target: succinate dehydrogenase (Botrytis cinerea, UniProt A0A384J5E4+A0A384J8V8+A0A384JHJ5)
Construct: succinate-DCPIP reductase assay with KCN
Experiment: Enzyme inhibition: succinate dehydrogenase activity in Botrytis cinerea mitochondria (DCPIP reduction)
Format: biochemical
Conditions: concentration required to inhibit the rate of DCPIP reduction by 50%; Botrytis cinerea isolate Nick mitochondria; read-out: I50 (μM conc.)
Method: Mitochondria were isolated by a method adapted from G.A. White [Biochem. Biophys. Res. Commun. 44: 1212, 1971]. […] The succinate dehydrogenase activity was measured at 600 nm in 50 mM potassium phosphate, pH 7.2, 1 mM KCN, 45 μM 2,6-dichlorophenolindophenol (DCPIP) and 17 mM disodium succinate (final volume, 1 mL) with a Perkin-Elmer Lambda 7 ultraviolet-visible spectrophotometer. […]
Give bare numbers, in µM.

Example entries begin here.
Cn1cc(C(=O)Nc2ccccc2O[C@@H]2C[C@H]3CC[C@@H]2C3)c(C(F)F)n1 (relative stereo)	0.083
COc1ccc(C2CCCCCCC2)c(NC(=O)c2cn(C)nc2C(F)(F)F)c1	0.014
Cc1ccc(C2CCCCC2)c(NC(=O)c2cn(C)nc2C(F)F)c1	0.019

Next, consider the following compound.
Which IC50 is reported with succinate dehydrogenase (Botrytis cinerea, UniProt A0A384J5E4+A0A384J8V8+A0A384JHJ5) for this entry: Cn1cc(C(=O)Nc2ccccc2CC2CCCCCC2)c(C(F)F)n1 ?
0.025
